Biological target: Recombinant human Met (c-Met) (Homo sapiens, UniProt P08581)
Construct: purchased Invitrogen PV3143
Sequence (P08581 956-1390 limits assumed): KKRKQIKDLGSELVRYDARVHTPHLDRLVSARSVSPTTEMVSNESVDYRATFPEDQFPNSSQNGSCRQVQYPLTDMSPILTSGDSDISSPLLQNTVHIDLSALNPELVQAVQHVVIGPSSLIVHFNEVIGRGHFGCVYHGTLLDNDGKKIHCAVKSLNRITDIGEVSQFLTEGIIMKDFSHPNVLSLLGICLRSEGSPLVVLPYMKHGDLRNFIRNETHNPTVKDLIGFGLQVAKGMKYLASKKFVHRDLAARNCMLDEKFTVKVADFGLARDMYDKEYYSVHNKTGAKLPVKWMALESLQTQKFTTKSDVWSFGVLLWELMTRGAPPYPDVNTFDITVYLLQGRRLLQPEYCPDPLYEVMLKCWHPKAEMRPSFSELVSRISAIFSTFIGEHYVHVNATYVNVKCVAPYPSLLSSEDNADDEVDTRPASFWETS
Assay: Inhibition of c-Met kinase activity using Transcreener FP assay
Format: biochemical
Conditions: Poly E4Y substrate, 28° C. 45 min, read-out: IC50, inhibition of c-Met kinase activity
Listed below: IC50 values for each entry.
measure: IC50

compound: c1cnc2ccc(Cn3nnc4ncc(Nc5cncc(N6CCOCC6)c5)nc43)cc2c1 [Compound 193]
measure: IC50
test result: 1 to 100 nM
//
compound: CC(c1ccc2ncsc2c1)n1nnc2ncc(-c3cnn(CCO)c3)nc21 (stereo not drawn) [Compound 20]
measure: IC50
test result: 1 to 100 nM
//
compound: c1cncc(Oc2cnc3nnn(Cc4ccc5ncccc5c4)c3n2)c1 [Compound 258]
measure: IC50
test result: 1 to 100 nM
//
compound: Cn1cc(-c2ccc3nnn(Cc4ccc5ncnn5c4)c3n2)cn1 [Compound 120]
measure: IC50
test result: 100 to 1000 nM
//
compound: COCCNc1ccnc(Nc2cnc3nnn(Cc4ccc5ncccc5c4)c3n2)c1 [Compound 204]
measure: IC50
test result: 100 to 1000 nM
//
compound: CN1CC[C@H](Nc2cc(Nc3cnc4nnn(Cc5ccc6ncccc6c5)c4n3)ccn2)C1 [Compound 229]
measure: IC50
test result: 1 to 100 nM
//
compound: N#Cc1ccc(-c2ccc3nnn(Cc4ccc5ncccc5c4)c3n2)s1 [Compound 102]
measure: IC50
test result: 1 to 100 nM
//
compound: CCCn1cc(-c2ccc3nnn(Cc4ccc5nccn5c4)c3n2)cn1 [Compound 140]
measure: IC50
test result: 1 to 100 nM
//
compound: CCn1ncc2sc(Cn3nnc4ncc(-c5cnn(CCO)c5)nc43)cc21 [Compound 38]
measure: IC50
test result: 100 to 1000 nM
//
compound: COCc1cnc2ccc(Cn3nnc4ncc(-c5cnn(C)c5)nc43)cn12 [Compound 308]
measure: IC50
test result: 1 to 100 nM
//
compound: N#Cc1ccc(-c2cnc3nnn(Cc4cc5[nH]ncc5s4)c3n2)cn1 [Compound 282]
measure: IC50
test result: 1 to 100 nM
//
compound: COCCNc1ccncc1Nc1cnc2nnn(Cc3ccc4ncccc4c3)c2n1 [Compound 209]
measure: IC50
test result: 100 to 1000 nM
//
compound: Cc1cnc2ccc(Cn3nnc4ncc(-c5cnn(C)c5)nc43)cn12 [Compound 298]
measure: IC50
test result: 1 to 100 nM
//
compound: Cc1ccnc(Nc2cnc3nnn(Cc4ccc5ncccc5c4)c3n2)c1 [Compound 196]
measure: IC50
test result: 1 to 100 nM
//
compound: COc1ccc(-c2ccc3nnn(Cc4ccc5ncccc5c4)c3n2)cn1 [Compound 70]
measure: IC50
test result: 1 to 100 nM
//
compound: CCn1cc(-c2cnc3nnn(Cc4n[nH]c5ncccc45)c3n2)cn1 [Compound 49]
measure: IC50
test result: 1 to 100 nM
//
compound: Cn1ccc(Nc2cnc3nnn(Cc4ccc5ncccc5c4)c3n2)n1 [Compound 152]
measure: IC50
test result: 1 to 100 nM
//
compound: COCCNc1cncc(Nc2cnc3nnn(Cc4ccc5ncccc5c4)c3n2)c1 [Compound 203]
measure: IC50
test result: 1 to 100 nM
//
compound: CC(c1ccc2ncccc2c1)n1nnc2ccc(-c3cnn(CCO)c3)nc21 (racemic) [Compound 332]
measure: IC50
test result: 1 to 100 nM
//
compound: CC(c1c[nH]c2ncccc12)n1nnc2ccc(-c3cnn(CCO)c3)nc21 (stereo not drawn) [Compound 113]
measure: IC50
test result: 1 to 100 nM
//
compound: N#Cc1cc(Nc2ccc3nnn(Cc4ccc5ncccc5c4)c3n2)ccn1 [Compound 215]
measure: IC50
test result: 1 to 100 nM
//
compound: N#CCn1cc(-c2cnc3nnn(Cc4cc5[nH]ncc5s4)c3n2)cn1 [Compound 27]
measure: IC50
test result: 1 to 100 nM
//
compound: CCCn1cc(-c2cnc3nnn(Cc4ccc5nccn5c4)c3n2)cn1 [Compound 47]
measure: IC50
test result: 1 to 100 nM
//
compound: O[C@@H]1CCC[C@H]1Nc1ccnc(Nc2cnc3nnn(Cc4ccc5ncccc5c4)c3n2)c1 [Compound 206]
measure: IC50
test result: 100 to 1000 nM
//
compound: CS(=O)(=O)n1cc(-c2ccc3nnn(Cc4ccc5ncccc5c4)c3n2)cn1 [Compound 150]
measure: IC50
test result: 1 to 100 nM
//
compound: OC1COCC1Nc1cc(Nc2cnc3nnn(Cc4ccc5ncccc5c4)c3n2)ccn1 (stereo not drawn) [Compound 228]
measure: IC50
test result: 1 to 100 nM
//
compound: Cn1cc(-c2ccc3nnn(Cc4ccc5ncsc5n4)c3n2)cn1 [Compound 142]
measure: IC50
test result: 100 to 1000 nM
//
compound: c1cnc2ccc(Cn3nnc4ccc(-c5ccc(N6CCOCC6)nc5)nc43)cc2c1 [Compound 63]
measure: IC50
test result: 1 to 100 nM
//
compound: Cn1cc(-c2ccc3nnn(C4(c5ccc6ncccc6c5)CC4)c3n2)cn1 [Compound 122]
measure: IC50
test result: 100 to 1000 nM
//
compound: OCCn1cc(-c2ccc3nnn(Cc4ccc5nccn5n4)c3n2)cn1 [Compound 273]
measure: IC50
test result: 100 to 1000 nM
//
compound: CCn1cc(-c2cnc3nnn(Cc4ccc5nccn5c4)c3n2)cn1 [Compound 8]
measure: IC50
test result: 1 to 100 nM
//
compound: OCCn1cc(-c2cnc3nnn(Cc4ccc5ncsc5c4)c3n2)cn1 [Compound 12]
measure: IC50
test result: 1 to 100 nM
//
compound: Cc1cncc(Nc2cnc3nnn(Cc4ccc5ncccc5c4)c3n2)c1 [Compound 158]
measure: IC50
test result: 1 to 100 nM
//
compound: CCOCc1cnc2ccc(Cn3nnc4ncc(-c5cnn(C)c5)nc43)cn12 [Compound 321]
measure: IC50
test result: 1 to 100 nM
//
compound: CCn1cc(-c2ccc3nnn(Cc4ccc5nccn5c4)c3n2)cn1 [Compound 135]
measure: IC50
test result: 1 to 100 nM
//
compound: Cc1cccnc1Nc1cnc2nnn(Cc3ccc4ncccc4c3)c2n1 [Compound 188]
measure: IC50
test result: 1 to 100 nM

====

Molecular target: Recombinant human Met (c-Met) (Homo sapiens)
Construct: purchased Invitrogen PV3143
Assay: Inhibition of c-Met kinase activity using Transcreener FP assay
Format: biochemical
Conditions: IC50, inhibition of c-Met kinase activity, Poly E4Y substrate, 28° C. 45 min
measure: IC50

compound: CC(c1ccc2nccn2c1)n1nnc2ncc(-c3cnn(C)c3)nc21 (racemic)
test result: 1 to 100 nM
--
compound: C[C@@H](c1ccc2nccn2c1)n1nnc2ncc(-c3cnn(C)c3)nc21
test result: 1 to 100 nM
--
compound: C[C@H](c1ccc2nccn2c1)n1nnc2ncc(-c3cnn(C)c3)nc21
test result: 1 to 100 nM

====

Biological target: Recombinant human Met (c-Met) (Homo sapiens)
Construct: purchased Invitrogen PV3143
Assay: Inhibition of c-Met kinase activity using Transcreener FP assay
Type: biochemical
Conditions: Poly E4Y substrate, 28° C. 45 min, read-out: IC50, inhibition of c-Met kinase activity

structure smiles: CNc1ccc(Nc2cnc3nnn(Cc4ccc5ncccc5c4)c3n2)cn1
experimental system: Recombinant human Met (c-Met) (Homo sapiens)
IC50: 100 to 1000 nM

structure smiles: Cn1cc(-c2ccc3nnn(Cc4ccc5ncccc5c4F)c3n2)cn1
experimental system: Recombinant human Met (c-Met) (Homo sapiens)
IC50: 1 to 100 nM

structure smiles: c1cnc2ccc(Cn3nnc4ccc(-c5cn[nH]c5)nc43)cc2c1
experimental system: Recombinant human Met (c-Met) (Homo sapiens)
IC50: 1 to 100 nM

structure smiles: CN(C)Cc1cnc2ccc(Cn3nnc4ncc(-c5cnn(C)c5)nc43)cn12
experimental system: Recombinant human Met (c-Met) (Homo sapiens)
IC50: 1 to 100 nM

structure smiles: Cn1cc(-c2cnc3nnn(Cc4c[nH]c5ncccc45)c3n2)cn1
experimental system: Recombinant human Met (c-Met) (Homo sapiens)
IC50: 1 to 100 nM

====

Molecular target: Recombinant human Met (c-Met) (Homo sapiens, UniProt P08581)
Construct: purchased Invitrogen PV3143
Assay: Inhibition of c-Met kinase activity using Transcreener FP assay
Assay type: biochemical
Settings: Poly E4Y substrate, 28° C. 45 min, read-out: IC50, inhibition of c-Met kinase activity
pIC50: −log10 of the molar value.
measure: pIC50

compound: Cn1cnc(-c2ccc3nnn(Cc4ccc5ncccc5c4)c3n2)c1
measure: pIC50
test result: 6.00 to 7.00
--
compound: COCCn1cc(-c2cnc3nnn(Cc4ccc5ncnn5c4)c3n2)cn1
measure: pIC50
test result: 6.00 to 7.00
--
compound: Fc1ccc(-c2cnc3nnn(Cc4ccn5nccc5c4)c3n2)cc1
measure: pIC50
test result: 7.00 to 9.00
--
compound: c1cc(-c2cnc3nnn(Cc4ccc5nccn5c4)c3n2)ccn1
measure: pIC50
test result: 7.00 to 9.00
--
compound: CC(C)n1cc(-c2ccc3nnn(Cc4ccc5ncccc5c4)c3n2)cn1
measure: pIC50
test result: 7.00 to 9.00
--
compound: CN1CCC(n2cc(-c3ccc4nnn(Cc5ccc6ncccc6c5)c4n3)cn2)CC1
measure: pIC50
test result: 6.00 to 7.00
--
compound: FC(F)(F)Cn1cc(-c2cnc3nnn(Cc4ccc5ncnn5c4)c3n2)cn1
measure: pIC50
test result: 7.00 to 9.00
--
compound: Cn1cc(-c2cc(Cl)c3nnn(Cc4ccc5ncccc5c4)c3n2)cn1
measure: pIC50
test result: 6.00 to 7.00
--
compound: COc1cncc(Nc2ccc3nnn(Cc4ccc5ncccc5c4)c3n2)c1
measure: pIC50
test result: 7.00 to 9.00
--
compound: Cc1cccc(Nc2ccc3nnn(Cc4ccc5ncccc5c4)c3n2)n1 [Compound 181]
measure: pIC50
test result: 6.00 to 7.00
--
compound: c1cnc2ccc(Cn3nnc4ncc(Sc5ccncc5)nc43)cc2c1
measure: pIC50
test result: 7.00 to 9.00
--
compound: OCCn1cc(-c2ccc3nnn(Cc4cc5cnccc5s4)c3n2)cn1
measure: pIC50
test result: 6.00 to 7.00
--
compound: OC1CCN(c2ccc3nnn(Cc4ccc5ncccc5c4)c3n2)C1 (stereo not drawn)
measure: pIC50
test result: 7.00 to 9.00
--
compound: FC(F)(F)Cn1cc(-c2ccc3nnn(Cc4ccc5ncnn5c4)c3n2)cn1
measure: pIC50
test result: 6.00 to 7.00
--
compound: CNCc1cnc2ccc(Cn3nnc4ncc(-c5cnn(C)c5)nc43)cn12
measure: pIC50
test result: 7.00 to 9.00
--
compound: Nc1ccc(-c2ccc3nnn(Cc4ccc5ncccc5c4)c3n2)cn1
measure: pIC50
test result: 7.00 to 9.00
--
compound: COCCOc1cc(-c2ccc3nnn(Cc4ccc5ncccc5c4)c3n2)ccn1
measure: pIC50
test result: 6.00 to 7.00
--
compound: N#Cc1ccnc(Nc2cnc3nnn(Cc4ccc5ncccc5c4)c3n2)c1
measure: pIC50
test result: 7.00 to 9.00
